# Study target: recombinant human ARG1 (Homo sapiens)
# Sequence (P05089 whole entry): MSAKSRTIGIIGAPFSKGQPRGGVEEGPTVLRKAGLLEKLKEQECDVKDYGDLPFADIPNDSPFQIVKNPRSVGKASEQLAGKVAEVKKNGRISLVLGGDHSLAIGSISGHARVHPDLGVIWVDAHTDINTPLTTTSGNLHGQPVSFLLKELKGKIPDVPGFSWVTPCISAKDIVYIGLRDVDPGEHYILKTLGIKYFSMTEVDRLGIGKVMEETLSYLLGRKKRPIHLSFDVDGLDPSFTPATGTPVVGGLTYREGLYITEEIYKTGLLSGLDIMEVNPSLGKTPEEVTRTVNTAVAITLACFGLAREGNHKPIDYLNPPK
# Assay overview: Arginase enzymatic assay in vitro, recombinant human ARG1 (colorimetric urea detection)
# Condition label: recombinant human arginase 1; read-out: IC50 Inh rhARG1
pIC50: −log10 of the molar value.
Measurement name: pIC50

Below, 4 molecules whose answers are already recorded.
- Molecule: "CC(c1ccccc1)N1CCC(C(N)(CCCCB(O)O)C(=O)O)CC1 (single isomer, unassigned) [Compound 10]"
  Measurement name: "pIC50"
  Val: "> 6.30"
- Molecule: "NC(CCCCB(O)O)(C(=O)O)C1CCN(C2CCCc3cc(Cl)ccc32)CC1 (single isomer, unassigned) [Compound 17]"
  Measurement name: "pIC50"
  Val: "> 6.30"
- Molecule: "CC(c1c(Cl)cccc1Cl)N1CCC(C(N)(CCCCB(O)O)C(=O)O)CC1 (single isomer, unassigned)"
  Measurement name: "pIC50"
  Val: "> 6.30"
- Molecule: "CC(c1ccc(F)c(Cl)c1)N1CCC(C(N)(CCCCB(O)O)C(=O)O)CC1 (single isomer, unassigned)"
  Measurement name: "pIC50"
  Val: "> 6.30"

# batch size: 7; output pIC50 per entry
1. CNC(CCCCB(O)O)(C(=O)O)C1CCN(C2CCCc3ccccc32)CC1 (single isomer, unassigned)
2. CC(c1ccccc1)N1CCC(C(N)(CCCCB(O)O)C(=O)O)CC1 (single isomer, unassigned) [Compound 11]
3. NC(CCCCB(O)O)(C(=O)O)C1CCN(C2CCc3cc(Cl)ccc32)CC1 (single isomer, unassigned)
4. NC(CCCCB(O)O)(C(=O)O)C1CCN(C2Cc3ccccc3C2)CC1 (single isomer, unassigned) [Compound 25]
5. NC(CCCCB(O)O)(C(=O)O)C1CCN(C2CCc3ccccc32)CC1 (single isomer, unassigned) [Compound 2]
6. NC(CCCCB(O)O)(C(=O)O)C1CCN(C2CCc3cc(Cl)ccc32)C1 (stereo not shown)
7. NC(CCCCB(O)O)(C(=O)O)C1CCN(C2CCCc3cc(Cl)ccc32)C1 (stereo not shown)

-- reply
1: > 6.30; 2: < 5.30; 3: > 6.30; 4: < 5.30; 5: > 6.30; 6: > 6.30; 7: 5.30 to 6.30

Give pIC50 for each of the items listed below.
1. NC(CCCCB(O)O)(C(=O)O)C1CCN(C2Cc3ccccc3C2)CC1 (single isomer, unassigned) [Compound 24]
2. NC(CCCCB(O)O)(C(=O)O)C1CCN(C2CCc3ccc(F)cc32)CC1 (single isomer, unassigned)
3. NC(CCCCB(O)O)(C(=O)O)C1CCN(C2CCCc3cccnc32)CC1 (single isomer, unassigned)

-- reply
1. 5.30 to 6.30
2. > 6.30
3. > 6.30

// input: 2 molecules below; output: pIC50 for each
1. NC(CCCCB(O)O)(C(=O)O)C1CCN(C2CCc3cc(C(F)(F)F)ccc32)CC1 (single isomer, unassigned)
2. NC(CCCCB(O)O)(C(=O)O)C1CCN(C2CCCc3cc(-c4ccccc4)ccc32)CC1 (single isomer, unassigned)

-- reply
1: > 6.30; 2: > 6.30

Take each entry in turn and give its pIC50.
1. NC(=O)C(N)(CCCCB(O)O)C1CCN(C2CCc3cc(Cl)ccc32)CC1 (stereo not shown)
2. NC(CCCCB(O)O)(C(=O)O)C1CCN(C2CCc3ccc(C(F)(F)F)cc32)CC1 (single isomer, unassigned)
3. CCCC(c1ccccc1)N1CCC(C(N)(CCCCB(O)O)C(=O)O)CC1 (single isomer, unassigned)
4. NC(CCCCB(O)O)(C(=O)O)C1CCN(C2CCCCc3ccccc32)CC1 (single isomer, unassigned)

-- reply
5.30 to 6.30
> 6.30
5.30 to 6.30
> 6.30

Quick batch: pIC50 for everything below.
1. CC1(C)OB(CCCCC(N)(C(=O)O)C2CCN(C3CCCc4ccccc43)CC2)OC1(C)C (stereo not shown)
2. NC(CCCCB(O)O)(C(=O)O)C1CCN(C2CCCc3ccccc32)CC1 (single isomer, unassigned) [Compound 7]
3. NC(CCCCB(O)O)(C(=O)O)C1CCN(C2Cc3ccccc3C2)CC1 (stereo not shown) [Compound 23]
4. NC(CCCCB(O)O)(C(=O)O)C1CCN(C2CCc3cc(F)c(F)cc32)CC1 (single isomer, unassigned)
5. NC(CCCCB(O)O)(C(=O)O)C1CCN(C2CCCc3ccccc32)CC1 (single isomer, unassigned) [Compound 4]

-- reply
["> 6.30", "> 6.30", "< 5.30", "> 6.30", "> 6.30"]

Provide pIC50 for all items below, preserving their order.
1. NC(CCCCB(O)O)(C(=O)O)C1CCN(C2CCc3ccccc32)CC1 (single isomer, unassigned) [Compound 3]
2. CC(c1c(F)cccc1F)N1CCC(C(N)(CCCCB(O)O)C(=O)O)CC1 (single isomer, unassigned)
3. NC(CCCCB(O)O)(C(=O)O)C1CCN(C2CCCc3ccc(F)cc32)CC1 (single isomer, unassigned)

-- reply
["< 5.30", "5.30 to 6.30", "> 6.30"]

* * *

# Study target: arginase activity in intact BMM-M2 cells (Mus musculus, UniProt Q61176)
# Construct: endogenous in cells; host or cells: bone-marrow derived macrophages from male C57BL/6 mice, polarised to M2 with IL-4
# Sequence (Q61176 whole entry): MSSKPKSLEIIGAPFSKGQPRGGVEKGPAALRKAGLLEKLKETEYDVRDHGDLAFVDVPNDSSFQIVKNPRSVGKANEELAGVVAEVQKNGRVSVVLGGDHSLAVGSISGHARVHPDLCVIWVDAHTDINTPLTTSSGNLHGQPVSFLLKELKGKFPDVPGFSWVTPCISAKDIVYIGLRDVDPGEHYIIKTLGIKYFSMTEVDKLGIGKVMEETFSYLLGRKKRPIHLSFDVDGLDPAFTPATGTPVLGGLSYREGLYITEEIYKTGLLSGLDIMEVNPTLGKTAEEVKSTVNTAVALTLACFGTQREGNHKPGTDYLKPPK
# Assay overview: Cell-based arginase assay: urea production by cultured BMM-M2 cells
# Condition label: 10 μM test compound, 24 h, read-out: Inh. urea production @10 μM (%)
Measurement name: inhibition at 10 µM

Take a look at these entries with their results.
- Compound: "NC(CCCCB(O)O)(C(=O)O)C1CCN(C2CCc3cc(C(F)(F)F)ccc32)CC1 (single isomer, unassigned) [Compound 85]"
  Val: "> 25%"
- Compound: "CNC(CCCCB(O)O)(C(=O)O)C1CCN(C2CCCc3ccccc32)CC1 (single isomer, unassigned) [Compound 79]"
  Val: "> 25%"
- Compound: "NC(CCCCB(O)O)(C(=O)O)C1CCN(C2CCc3ccccc32)CC1 (single isomer, unassigned) [Compound 3]"
  Val: "< 15%"
- Compound: "NC(CCCCB(O)O)(C(=O)O)C1CCN(C2CCCc3ccccc32)CC1 (single isomer, unassigned) [Compound 5]"
  Val: "> 25%"

Field: next compound
-- ask # inhibition at 10 µM lookup, item NC(CCCCB(O)O)(C(=O)O)C1CCN(C2CCCc3cc(Cl)ccc32)CC1 (single isomer, unassigned) [Compound 17]
-- reply > 25%

* * *

Answer each item with its documented pIC50.
# Study target: recombinant human ARG2 (Homo sapiens)
# Sequence (P78540 23-354): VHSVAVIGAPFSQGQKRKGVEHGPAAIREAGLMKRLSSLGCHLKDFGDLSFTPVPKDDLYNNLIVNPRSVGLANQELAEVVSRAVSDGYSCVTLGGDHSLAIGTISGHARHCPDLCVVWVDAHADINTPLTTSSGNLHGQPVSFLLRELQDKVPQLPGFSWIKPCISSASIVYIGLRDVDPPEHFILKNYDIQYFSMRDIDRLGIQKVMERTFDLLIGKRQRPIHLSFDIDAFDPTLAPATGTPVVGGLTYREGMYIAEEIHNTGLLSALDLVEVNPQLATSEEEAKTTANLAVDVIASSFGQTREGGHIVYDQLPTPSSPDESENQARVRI
# Assay overview: Arginase enzymatic assay in vitro, recombinant human ARG2 (colorimetric urea detection)
# Condition label: recombinant human arginase 2; read-out: IC50 Inh rhARG2
pIC50: −log10 of the molar value.

- Molecule: "CC(c1c(F)cccc1F)N1CCC(C(N)(CCCCB(O)O)C(=O)O)CC1 (single isomer, unassigned)"
  pIC50: "5.30 to 6.30"
- Molecule: "CC(c1c(Cl)cccc1Cl)N1CCC(C(N)(CCCCB(O)O)C(=O)O)CC1 (single isomer, unassigned)"
  pIC50: "5.30 to 6.30"
- Molecule: "NC(CCCCB(O)O)(C(=O)O)C1CCN(C2CCc3cc(F)c(F)cc32)CC1 (single isomer, unassigned)"
  pIC50: "> 6.30"
- Molecule: "NC(CCCCB(O)O)(C(=O)O)C1CCN(C2CCc3ccccc32)CC1 (stereo not shown) [Compound 1]"
  pIC50: "5.30 to 6.30"
- Molecule: "NC(CCCCB(O)O)(C(=O)O)C1CCN(C2CCCc3ccccc32)CC1 (single isomer, unassigned) [Compound 5]"
  pIC50: "> 6.30"

# batch: return pIC50 for each of the 3 molecules below
1. NC(CCCCB(O)O)(C(=O)O)C1CCN(C2CCCc3ccccc32)CC1 (single isomer, unassigned) [Compound 7]
2. NC(CCCCB(O)O)(C(=O)O)C1CCN(C2Cc3ccccc3C2)CC1 (single isomer, unassigned) [Compound 24]
3. NC(CCCCB(O)O)(C(=O)O)C1CCN(C2CCCc3c(Br)cccc32)CC1 (single isomer, unassigned)

-- reply
5.30 to 6.30
5.30 to 6.30
5.30 to 6.30

State recorded pIC50 for all listed molecules.
1. NC(CCCCB(O)O)(C(=O)O)C1CCN(C2CCc3ccccc32)CC1 (single isomer, unassigned) [Compound 2]
2. NC(CCCCB(O)O)(C(=O)O)C1CCN(C2CCCc3ccc(F)cc32)CC1 (single isomer, unassigned)
3. NC(CCCCB(O)O)(C(=O)O)C1CCN(C2CCCc3cc(Cl)ccc32)CC1 (stereo not shown) [Compound 16]
4. NC(CCCCB(O)O)(C(=O)O)C1CCN(C2CCCc3cc(Cl)ccc32)CC1 (single isomer, unassigned) [Compound 17]

-- reply
["> 6.30", "> 6.30", "> 6.30", "> 6.30"]
